Numbers sourced from patent US8507472B2.

# Tested on: Fusarium nivale (var. majus)
# assay-method-text: Fusarium nivale (var. majus) test (wheat)/protective
# Assay type: in vivo
# measurement-setup: 1000 ppm active compound, protective, evaluation 5 days after inoculation
measurement-kind: efficacy in % (%)

In [3]: df
Out[3]:
                               smiles_input  measurement_kind  result_value
0  COCC(=O)Nc1cc(-c2c(-c3ccc(F)cc3)nn3c2CCCC3)ccn1     efficacy in %            86
1  CC(C)CC(=O)Nc1cc(-c2c(-c3ccc(F)cc3)nn3c2CCCC3)ccn1     efficacy in %            86
2     Fc1ccc(-c2nn3c(c2-c2ccncc2)CCCCC3)cc1     efficacy in %            80
3  CCC(=O)Nc1cc(-c2c(-c3ccccc3)nn3c2CCCC3)ccn1     efficacy in %           100
4  O=C(Nc1cc(-c2c(-c3ccc(F)cc3)nn3c2CCCC3)ccn1)c1ccsc1     efficacy in %            80
5  CC(C)C(=O)Nc1cc(-c2c(-c3ccccc3)nn3c2CCCC3)ccn1     efficacy in %            86
6  COC(=O)Nc1cc(-c2c(-c3ccccc3)nn3c2CCCC3)ccn1     efficacy in %            86
7  CC(=O)Nc1cc(-c2c(-c3ccccc3)nn3c2CCCC3)ccn1     efficacy in %           100
8  C[C@H](O)C(=O)Nc1cc(-c2c(-c3ccccc3)nn3c2CCCC3)ccn1     efficacy in %           100

====

# Test system: Fusarium nivale (var. majus)
# assay-method-text: Fusarium nivale (var. majus) test (wheat)/protective
# Format: in vivo
# measurement-setup: 1000 ppm active compound, protective, evaluation 5 days after inoculation
measurement-kind: efficacy in % (%)

                                   compound  result_value
0  COC(=O)Nc1cc(-c2c(-c3ccc(F)cc3)nn3c2CCCC3)ccn1 [Example 26]            86
1  O=CNc1cc(-c2c(-c3ccc(F)cc3)nn3c2CCCC3)ccn1 [Example 36]            88
2  C[C@H](O)C(=O)Nc1cc(-c2c(-c3ccc(F)cc3)nn3c2CCCC3)ccn1 [Example 24]           100
3  CN(C)C=Nc1cc(-c2c(-c3ccccc3)nn3c2CCCC3)ccn1 [Example 38]            86
4  CC(C)C(=O)Nc1cc(-c2c(-c3ccc(F)cc3)nn3c2CCCC3)ccn1 [Example 28]           100

====

# reported efficacy in %; entries follow
# Test system: Alternaria solani
# assay-method-text: Alternaria test (tomato)/protective
# Format: in vivo
# measurement-setup: in vivo
# Procedure: Solvent: 49 parts by weight of N,N-dimethylformamide Emulsifier: 1 part by weight of alkylaryl polyglycol ether To produce a suitable preparation of active compound, 1 part by weight of active compound is mixed with the stated amounts of solvent and emulsifier, and the concentrate is diluted with water to the desired concentration. To test for protective activity, young tomato plants are sprayed with the active compound preparation at the stated application rate. […]
measurement-kind: efficacy in % (%)

>>> df
                               smiles_input  scale_unit  result_value
0  COCC(=O)Nc1cc(-c2c(-c3ccc(F)cc3)nn3c2CCOC3(C)C)ccn1           %            89
1  O=C(CC1CC1)Nc1cc(-c2c(-c3ccc(F)cc3)nn3c2COCC3)ccn1           %            90
2  O=C(Nc1cc(-c2c(-c3cccs3)nn3c2CCCC3)ccn1)C1CC1           %            90
